# SYSTEM: PvNMT (Plasmodium vivax, UniProt A5K1A2)
# Sequence (A5K1A2 entry or part of it): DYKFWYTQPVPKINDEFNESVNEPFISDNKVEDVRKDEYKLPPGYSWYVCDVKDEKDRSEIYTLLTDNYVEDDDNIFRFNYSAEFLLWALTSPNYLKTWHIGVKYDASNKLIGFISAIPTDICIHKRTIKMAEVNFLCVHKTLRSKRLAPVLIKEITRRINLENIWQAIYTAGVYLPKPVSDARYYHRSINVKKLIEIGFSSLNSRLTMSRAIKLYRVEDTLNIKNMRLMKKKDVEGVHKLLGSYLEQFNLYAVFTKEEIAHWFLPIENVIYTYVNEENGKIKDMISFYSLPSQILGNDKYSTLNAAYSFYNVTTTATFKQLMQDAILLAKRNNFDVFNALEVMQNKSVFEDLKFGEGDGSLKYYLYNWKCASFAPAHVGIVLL
# PROCEDURE DETAILS: NMT activity assay (CPM detection of free CoA), PvNMT
# ASSAY CONTEXT: enzyme selectivity, HsNMT IC50/PvNMT IC50
Listing: SI of selected compounds
PROPERTY MEASURED: SI

compound="Cc1nn(C)c(C)c1CCOc1ccccc1-c1cccc(OCCN(C)C)c1 [Compound 26b]" property_measured=SI endpoint_result=118.4
compound="Cc1nn(C)c(C)c1CCOc1cccnc1-c1ccnc(N2CCNCC2)c1 [Compound 12a]" property_measured=SI endpoint_result=146.7
compound="Cc1n[nH]c(C)c1CCOc1cc(F)ccc1-c1ccnc(N2CCNCC2)c1 [Compound 12q]" property_measured=SI endpoint_result=22
compound="Cc1n[nH]c(C)c1CCOc1cc(F)ccc1-c1cccc(OCCN(C)C)c1 [Compound 26i]" property_measured=SI endpoint_result=57
compound="Cc1n[nH]c(C)c1CCOc1cc(F)ccc1-c1cccc(N2CCNCC2)c1 [Compound 12p]" property_measured=SI endpoint_result=62.7
compound="c1cncc(CCOc2ccccc2-c2ccnc(N3CCNCC3)c2)c1 [Compound 12j]" property_measured=SI endpoint_result=220.6
compound="Cc1n[nH]c(C)c1CCOc1ccccc1-c1ccnc(N2CCNCC2)c1 [Compound 12n]" property_measured=SI endpoint_result=65.7
compound="Cc1nn(C)c(C)c1CCOc1ccccc1-c1ccnc(N2CCNCC2)c1 [Compound 12c]" property_measured=SI endpoint_result=63.1
compound="c1cncc(CCOc2cccnc2-c2cccc(N3CCNCC3)c2)c1 [Compound 12g]" property_measured=SI endpoint_result=152.8
compound="Cc1nn(C)c(C)c1CCOc1cc(F)ccc1-c1cccc(N2CCNCC2)c1 [Compound 12f]" property_measured=SI endpoint_result=43.9
compound="Fc1ccc(-c2ccnc(N3CCNCC3)c2)c(OCCc2cccnc2)c1 [Compound 12l]" property_measured=SI endpoint_result=73
compound="Cc1nn(C)c(C)c1CCOc1ccc2ccccc2c1-c1ccnc(N2CCNCC2)c1 [Compound 30a]" property_measured=SI endpoint_result=269.8
compound="Cc1nn(C)c(C)c1CCOc1ccccc1-c1cccc(N2CCNCC2)c1 [Compound 12d]" property_measured=SI endpoint_result=153.4
compound="Cc1nn(C)c(C)c1CCOc1cc(F)ccc1-c1cccc(OCCN(C)C)c1 [Compound 26c]" property_measured=SI endpoint_result=162.3
